Compiled IC50 measurements on 3-phosphoinositide-dependent protein kinase 1 (Homo sapiens) taken from the literature.

Illustrative cases are given below, each with its answer.
Task item: Please tell me: IC50 of C#Cc1ccc2nc(Nc3ccc(C(=O)NC4CC4)cc3)ncc2c1Cl , system 3-phosphoinositide-dependent protein kinase 1 (Homo sapiens)?
Reply: < 5 µM

Task item: API: value(readout= IC50, system= 3-phosphoinositide-dependent protein kinase 1 (Homo sapiens), query= CCC(O)(c1cc(-c2c[nH]c3ncc(-c4cnn(C)c4)nc23)nc(N)n1)c1ccccc1F (centres unmarked) )
Reply: 0.054 µM

Task item: What IC50 appears in the records for this compound with 3-phosphoinositide-dependent protein kinase 1 (Homo sapiens)? COc1cc2nc(Nc3ccc(C(=O)N4CCOCC4)c(Cl)c3)ncc2cc1-c1nccs1
Reply: < 5 µM

Task item: Param readout = IC50; param system = 3-phosphoinositide-dependent protein kinase 1 (Homo sapiens); param query = c1csc(-c2ccc3nc(Nc4ccc(N5CCOCC5)cc4)ncc3c2)n1 ; response: value
Reply: < 5 µM

Task item: Item NS(=O)(=O)c1cccc2c1C(=O)c1cccc(O)c1C2=O with 3-phosphoinositide-dependent protein kinase 1 (Homo sapiens) - IC50?
Reply: > 100 µM

Next:
Task item: So what IC50 did CCc1cc(OC)c2nc(Nc3ccc(S(N)(=O)=O)cc3)ncc2c1 get with 3-phosphoinositide-dependent protein kinase 1 (Homo sapiens)?
Reply: < 5 µM

Task item: For 3-phosphoinositide-dependent protein kinase 1 (Homo sapiens), provide IC50 of Cc1ccc(C(=O)N[C@@H](C(=O)Nc2ccc3c(c2)/C(=C/c2cnc[nH]2)C(=O)N3)c2ccccc2)c(=O)n1Cc1ccc(F)c(F)c1 please.
Reply: 0.148 µM

Task item: Param readout = IC50; param system = 3-phosphoinositide-dependent protein kinase 1 (Homo sapiens); param query = C#Cc1cc(OC)c2nc(Nc3ccc(N4CCOCC4)cc3)ncc2c1Cl ; response: value
Reply: < 5 µM

* * *

Field IC50: reported value for 3-phosphoinositide-dependent protein kinase 1 (Homo sapiens); entries drawn from several documents.

Example results:
Task item: Lab request: please report IC50 under test system 3-phosphoinositide-dependent protein kinase 1 (Homo sapiens) for COc1cc(Br)c(Cl)c2cnc(Nc3ccc(N4CCOCC4)cc3)nc12
Reply: < 5 µM

Task item: Record Cc1nc(OCC(=O)Nc2cccc(C(F)(F)F)c2)c(C#N)c(C)c1[N+](=O)[O-] : what is its IC50 with 3-phosphoinositide-dependent protein kinase 1 (Homo sapiens)?
Reply: > 2 µM

Task item: Observed IC50 on 3-phosphoinositide-dependent protein kinase 1 (Homo sapiens) for CSc1nc(N)nc(SCC(=O)Nc2ccc(F)c(C(F)(F)F)c2)c1C#N , please.
Reply: > 2 µM

Task item: What value of IC50 on 3-phosphoinositide-dependent protein kinase 1 (Homo sapiens) does Cn1cc(-c2cnc3[nH]cc(-c4cc(C(C)(O)c5ccccc5F)nc(N)n4)c3n2)cn1 (centres unmarked) have?
Reply: 0.031 µM

Task item: Form: Entry = CC(=O)Nc1cc(CN(C)C)cc(Nc2ncc3cc(-c4cncnc4)ccc3n2)c1 | System = 3-phosphoinositide-dependent protein kinase 1 (Homo sapiens) | IC50 = ____
Reply: < 5 µM

New cases:
Task item: Tell me reported IC50 for CC(=O)Nc1ccc(C(=O)Nc2sc(Nc3ccccc3)nc2C(N)=O)cc1 , tested with 3-phosphoinositide-dependent protein kinase 1 (Homo sapiens).
Reply: > 0.3 µM

Task item: Return IC50 measured with 3-phosphoinositide-dependent protein kinase 1 (Homo sapiens) given this molecule: COc1cc2c(cc1OC[C@@H]1CCCN1Cc1ccccc1)ncc1c(N)nc3c(C)c(N)ccc3c12
Reply: 2.98 µM

Task item: Lookup: IC50 / 3-phosphoinositide-dependent protein kinase 1 (Homo sapiens) / CSc1nc(N)nc(SCC(=O)c2ccc3c(c2)NC(=O)CO3)c1C#N
Reply: > 2 µM

* * *

Before we begin, note that these IC50 values for 3-phosphoinositide-dependent protein kinase 1 (Homo sapiens, UniProt O15530) originate from several publications.

Task item: Please provide the recorded IC50 for Cc1nc2cnc3ccc(C#Cc4ccccc4)cc3c2n1-c1ccc(CCN)cc1 , tested on 3-phosphoinositide-dependent protein kinase 1 (Homo sapiens, UniProt O15530).
Reply: ≤ 500 nM

Task item: Give recorded IC50 with 3-phosphoinositide-dependent protein kinase 1 (Homo sapiens, UniProt O15530) for the following compound: COc1cccc(C#Cc2ccc3ncc4ncn(-c5ccc(CCCN)cc5)c4c3c2)c1
Reply: ≤ 500 nM

Task item: Report IC50 for CCC(O)(c1ccncc1)c1cc(-c2c[nH]c3ncc(-c4cnn(C)c4)nc23)nc(N)n1 (centres unmarked) tested on 3-phosphoinositide-dependent protein kinase 1 (Homo sapiens, UniProt O15530).
Reply: 17 nM

Task item: Identify the measured IC50 of CSc1nc(N)nc(SCC(=O)Nc2nccs2)c1C#N for 3-phosphoinositide-dependent protein kinase 1 (Homo sapiens, UniProt O15530).
Reply: > 2000 nM

Then this compound:
Task item: # query: IC50 | item C#Cc1ccc2nc(Nc3cc(-c4cccnc4)cc(N4CCOCC4)c3)ncc2c1 | system: 3-phosphoinositide-dependent protein kinase 1 (Homo sapiens, UniProt O15530)
Reply: < 5000 nM

* * *

Target or system 3-phosphoinositide-dependent protein kinase 1 (Homo sapiens); metric pIC50; compiled from varied reports.
pIC50: −log10 of the molar value.

Task item: For the compound shown here, C#Cc1ccc2nc(Nc3cccc(CN(C)C)c3)ncc2c1 , give the reported pIC50.
Reply: > 5.30

Task item: Need pIC50 of C#Cc1ccc2nc(Nc3ccc(N4CCOCC4)cc3)ncc2c1Cl , thanks.
Reply: > 5.30

Task item: For the compound COc1cc2ncc3c(N)nc4c(C)c(Cl)ccc4c3c2cc1OC , what pIC50 is on record?
Reply: 5.65

***
Task item: Requested read-out: pIC50. Entry: COc1cc2ncc3c(OC)nc4c(C)c(OC)ccc4c3c2cc1OC
Reply: 4.62

Task item: Using the record for COc1cc2c(cc1OCCCl)ncc1c(N)nc3c(C)c(N)ccc3c12 , report its pIC50.
Reply: 7.37

Task item: # lookup: pIC50 of CSc1nc(N)nc(SCC(=O)n2nc(C)cc2C)c1C#N
Reply: < 5.70

Task item: What measured pIC50 goes with C#Cc1ccc2nc(Nc3ccc(N4CCOCC4)c(CN(C)C)c3)ncc2c1 ?
Reply: > 5.30

Task item: # input compound: C#Cc1cc(OC)c2nc(Nc3ccc(C(=O)N4CCOCC4)cc3)ncc2c1Cl ; wanted: its pIC50
Reply: > 5.30

* * *

Record: compiled pIC50 on 3-phosphoinositide-dependent protein kinase 1 (Homo sapiens) from multiple reports.
pIC50: −log10 of the molar value.

These recorded examples may help you get a feel for the data.
Task item: Find the measured pIC50: item COc1cc2nc(Nc3ccc(C(=O)N4CCOCC4)c(Cl)c3)ncc2cc1Br , target or system 3-phosphoinositide-dependent protein kinase 1 (Homo sapiens).
Reply: > 5.30

Task item: Give recorded pIC50 with 3-phosphoinositide-dependent protein kinase 1 (Homo sapiens) for the following molecule: COc1cc2c(cc1F)ncc1c(N)nc3c(C)c(N)ccc3c12
Reply: 6.41

Task item: Given the entry COc1cc2c(cc1OCCN(C)CCN(C)C)ncc1c(N)nc3c(C)c(N)ccc3c12 , what pIC50 was observed with 3-phosphoinositide-dependent protein kinase 1 (Homo sapiens)?
Reply: 6.55

Task item: Item: COCOC(C)(c1cccc(F)c1)c1cc(-c2c[nH]c3ncc(-c4cnn(C)c4)nc23)nc(N)n1 (stereo not drawn) Test system: 3-phosphoinositide-dependent protein kinase 1 (Homo sapiens) Read-out: pIC50 Value: ?
Reply: 6.92

Task item: What pIC50 appears in the records for this molecule with 3-phosphoinositide-dependent protein kinase 1 (Homo sapiens)? CSc1nc(N)nc(N(C)[C@@H](C)C(=O)Nc2cc(OC(F)(F)F)ccc2OCCN(C)C)c1C#N
Reply: < 5.70

Next:
Task item: Give recorded pIC50 with 3-phosphoinositide-dependent protein kinase 1 (Homo sapiens) for the following molecule: C#Cc1cc2cnc(Nc3ccc(-n4cnnn4)cc3)nc2cc1OC
Reply: > 5.30

Task item: State its pIC50 on 3-phosphoinositide-dependent protein kinase 1 (Homo sapiens): Fc1c(Br)ccc2nc(Nc3ccc(N4CCOCC4)cc3)ncc12
Reply: > 5.30

Task item: For the record COc1cc2ncc3c(N)nc4cc(N)ccc4c3c2cc1OC , what value of pIC50 is listed for 3-phosphoinositide-dependent protein kinase 1 (Homo sapiens)?
Reply: 6.17

Task item: Fill in the recorded pIC50 for this molecule, with 3-phosphoinositide-dependent protein kinase 1 (Homo sapiens) as test system: CSc1nc(N)nc(SC2CCN(c3cccc(C(F)(F)F)c3)C2=O)c1C#N (stereo not drawn)
Reply: < 5.70

* * *

Compiled record: IC50 values for 3-phosphoinositide-dependent protein kinase 1 (Homo sapiens, UniProt O15530) across several sources.

Task item: # query: IC50 of entry COc1cccc(C#Cc2cc3c(cc2F)ncc2ncn(-c4ccc(CCN)cc4)c23)c1
Reply: 0.5 to 1 µM

Task item: Can you share its IC50? I mean this compound: CC[C@@](O)(c1cccc(F)c1)c1cc(-c2c[nH]c3ncc(-c4cnn(C)c4)nc23)nc(N)n1 (single isomer, unassigned)
Reply: 0.018 µM

Task item: Which value of IC50 has been reported for Cc1c(Br)cc(C(=O)NCC(=O)Nc2ccc3c(c2)/C(=C/c2cnc[nH]2)C(=O)N3)c(=O)n1Cc1ccc(F)c(F)c1 in the records?
Reply: 0.134 µM

Task item: Would you kindly share the measured IC50 for C#Cc1ccc2nc(Nc3ccc(N4CCOCC4)cc3)ncc2c1 ?
Reply: < 5 µM

Task item: Please report the recorded IC50 for C#Cc1ccc2nc(Nc3cc(CN4CCCC4)cc(NC(C)=O)c3)ncc2c1 .
Reply: < 5 µM

Task item: Look at this compound and give its reported IC50. C#Cc1ccc2nc(Nc3cc(CN4CCOCC4)cc(NC(C)=O)c3)ncc2c1F
Reply: < 5 µM

Task item: Which IC50 value is on record for C#Cc1ccc2nc(Nc3cc(C#N)cc(CN4CCOCC4)c3)ncc2c1 ?
Reply: < 5 µM

Task item: Given the compound CCOc1cc2ncc3c(N)nc4c(C)c(N)ccc4c3c2cc1OCC , what is its reported IC50?
Reply: 0.273 µM

Task item: Quick one: IC50 for COc1cc2c(cc1OCCN(C)C)ncc1c(N)nc3c(C)c(N)ccc3c12 ?
Reply: 0.377 µM

Task item: Entry COc1cc2c(cc1OCCN1CCCC1)ncc1c(N)nc3c(C)c(N)ccc3c12 has what IC50?
Reply: 0.261 µM

Task item: Given the compound COc1cc2c(cc1NCCN1CCOCC1)ncc1c(N)nc3c(C)c(N)ccc3c12 , what is its reported IC50?
Reply: 0.296 µM

Task item: Give its IC50 value. Item: C#Cc1cc(Cl)c2nc(Nc3cc(CN4CCOCC4)cc(NC(C)=O)c3)ncc2c1
Reply: < 5 µM

Task item: State the recorded IC50 for this entry: CCCCOc1cccc(NC(=O)CSc2nc(N)nc(SC)c2C#N)c1
Reply: > 2 µM

Task item: Could you tell me which IC50 is on file for CCOCCOc1cc2ncc3c(N)nc4c(C)c(N)ccc4c3c2cc1OC ?
Reply: 0.172 µM

Task item: Value lookup for IC50; key = CN1CCN(c2cc(-c3ccc4nc(Nc5ccc(S(N)(=O)=O)cc5)ncc4c3)ccn2)CC1
Reply: < 5 µM

Task item: # input compound: C#Cc1ccc2nc(Nc3cccc(NS(C)(=O)=O)c3)ncc2c1 ; wanted: its IC50
Reply: < 5 µM

Task item: For COc1cc2c(cc1N(C)CCN(C)C)ncc1c(N)nc3c(C)c(N)ccc3c12 , what is its reported IC50?
Reply: 1.17 µM

Task item: Entry COc1cc2c(cc1OCCCN1CCOCC1)ncc1c(N)nc3c(C)c(N)ccc3c12 has what IC50?
Reply: 0.121 µM

Task item: Look up IC50 for this compound: CC[C@](O)(c1cc(-c2c[nH]c3ncc(-c4cnn(C)c4)nc23)nc(N)n1)c1ccccc1F (single isomer, unassigned)
Reply: 0.095 µM

Task item: Reported IC50 for CSc1nc(N)nc(N(C)[C@@H](C)C(=O)Nc2cc(C(=O)NCCN(C)C)cc(C(F)(F)F)c2)c1C#N : what is it?
Reply: > 2 µM

Task item: Would you kindly share the measured IC50 for C#Cc1ccc2nc(Nc3cccc(C(N)=O)c3)ncc2c1 ?
Reply: < 5 µM

Task item: For the compound CSc1nc(N)nc(N(C)[C@@H](C)C(=O)Nc2cc(C(=O)NCCN3CCOCC3)cc(C(F)(F)F)c2)c1C#N , what IC50 is on record?
Reply: > 2 µM
